For each entry below, report its ED50 value.
- system: Transcription factor p65 (Homo sapiens) (UniProt Q04206)
- Sequence (Q04206 whole entry): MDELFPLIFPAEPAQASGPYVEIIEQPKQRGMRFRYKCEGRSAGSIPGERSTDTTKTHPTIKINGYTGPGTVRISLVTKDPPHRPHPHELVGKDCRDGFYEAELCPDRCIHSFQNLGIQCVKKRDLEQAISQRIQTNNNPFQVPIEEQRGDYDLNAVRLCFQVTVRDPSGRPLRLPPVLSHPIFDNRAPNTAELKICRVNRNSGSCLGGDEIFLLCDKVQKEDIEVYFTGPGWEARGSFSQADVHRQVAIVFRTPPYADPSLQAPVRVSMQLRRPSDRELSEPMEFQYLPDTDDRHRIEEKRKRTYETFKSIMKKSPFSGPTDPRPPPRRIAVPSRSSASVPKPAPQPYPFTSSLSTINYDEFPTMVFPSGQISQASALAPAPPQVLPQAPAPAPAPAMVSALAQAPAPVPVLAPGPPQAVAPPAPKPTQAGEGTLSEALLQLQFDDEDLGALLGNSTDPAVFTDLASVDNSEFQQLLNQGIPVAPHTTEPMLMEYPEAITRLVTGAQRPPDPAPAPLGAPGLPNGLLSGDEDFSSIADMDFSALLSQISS
- assayDetails: Inhibition of NF-kappaB p65 (unknown origin) by ELISA

- compound: "C=C(CC[C@@H](CO)[C@H]1CC[C@@]2(C)[C@@H]3CC[C@H]4[C@H](C)[C@@H](O)CC[C@@]45C[C@@]35CC[C@]12C)C(C)C"
  ED50: "> 20 µM"
- compound: "COc1ccc(-c2oc3cc(OC)cc(OC)c3c(=O)c2O)cc1"
  ED50: "> 20 µM"
- compound: "COc1cc2ccc(=O)oc2cc1O"
  ED50: "> 20 µM"
- compound: "CC(C)=C[C@H]1OC[C@@H]([C@H]2CC[C@@]3(C)[C@@H]4CC[C@H]5C(C)(C)[C@@H](O)CC[C@@]56C[C@@]46CC[C@]23C)[C@@H]1O"
  ED50: "> 20 µM"
- compound: "COc1cc(OC)c2c(c1)O[C@@]1(c3ccc4c(c3)OCO4)[C@H](c3ccccc3)C[C@@H](O)[C@@]21OC"
  ED50: "> 20 µM"
- compound: "COc1cc(OC)c2c(c1)O[C@@]1(c3ccc4c(c3)OCO4)[C@H](c3ccccc3)C[C@@H](O)[C@@]21O"
  ED50: "0.33 µM"

Now let's try a different one.
GET /value?item= COc1ccc([C@]23Oc4cc(OC)cc(OC)c4[C@](O)(C2O)[C@@H](c2ccccc2)[C@@H]3C(=O)NCCCCNC(=O)/C(C)=C/CO)cc1 (stereo in doubt; 2) &field=ED50 returns 2.4 µM

====

- assayDetails: Cytotoxicity against human CCD-112CoN cells
- Assay type: cell-based
- experimentalContext: read-out: ED50 (the source's name)
Can you tell me CC50 for the items I'm about to list?

Below, 3 compounds whose answers are already recorded.
- compound: "COc1ccc([C@@]23Oc4cc(OC)cc(OC)c4[C@]2(O)[C@H](O)C[C@H]3c2ccccc2)cc1"
  result: "> 50 µM"
- compound: "CC(=O)O[C@H]1C(=O)[C@@]2(C)[C@H]([C@H](OC(=O)c3ccccc3)[C@]3(O)C[C@H](OC(=O)[C@H](O)[C@@H](NC(=O)c4ccccc4)c4ccccc4)C(C)=C1C3(C)C)[C@]1(OC(C)=O)CO[C@@H]1C[C@@H]2O"
  result: "23 µM"
- compound: "COC(=O)[C@H]1[C@@H](OC=O)[C@@]2(O)c3c(OC)cc(OC)cc3O[C@@]2(c2ccc3c(c2)OCO3)[C@@H]1c1ccccc1"
  result: "> 50 µM"

I have 2 compounds here; please give me CC50 for each one.
1. COc1ccc([C@]23Oc4cc(OC)cc(OC)c4[C@](O)(C2O)[C@@H](c2ccccc2)[C@@H]3C(=O)NCCCCNC(=O)/C(C)=C/CO)cc1 (stereo in doubt; 2)
2. COC(=O)[C@H]1[C@@H](O)[C@@]2(OC)c3c(OC)cc(OC)cc3O[C@@]2(c2ccc3c(c2)OCO3)[C@@H]1c1ccccc1

1: > 50 µM; 2: > 50 µM

Recorded result, COC(=O)[C@H]1[C@@H](O)[C@@]2(O)c3c(OC)cc(OC)cc3O[C@@]2(c2ccc3c(c2)OCO3)[C@@H]1c1ccccc1 , CC50: > 50 µM

====

- Test system: HT-29
- assayDetails: Cytotoxicity against human HT-29 cells
- Assay type: functional
- experimentalContext: Homo sapiens, HT-29; read-out: ED50 (the source's name)
quantityMeasured: EC50 (nM)
Answers are plain numbers, in nM.

The examples below pair each entry with its known result.
- smilesEntry: "COc1ccc([C@@]23Oc4cc(OC)cc(OC)c4[C@]2(O)[C@H](O)C[C@H]3c2ccccc2)cc1"
  system: "HT-29"
  unitAbbrev: "nM"
  quantitativeReadout: 0.7
- smilesEntry: "COC(=O)[C@H]1[C@@H](O)[C@@]2(O)c3c(OC)cc(OC)cc3O[C@@]2(c2ccc3c(c2)OCO3)[C@@H]1c1ccccc1"
  system: "HT-29"
  unitAbbrev: "nM"
  quantitativeReadout: 2

// next item, EC50 requested
Simply: COC(=O)[C@H]1[C@@H](O)[C@@]2(OC)c3c(OC)cc(OC)cc3O[C@@]2(c2ccc(OC)cc2)[C@@H]1c1ccccc1 , HT-29, EC50 = 4900
